System: Lewis lung cancer
Details: Lewis lung cancer; Dosage 50, ip × 10qd; second time
quantityName: Body weight of the animals, beginning, Second time (g)
Express the result in g but write the number alone.

Query string: Record lookup: for Lewis lung cancer, what Body weight of the animals, beginning, Second time belongs to CCOC(=O)c1cc2c3ccccc3n(Cc3ccccc3)c2cn1 [Compound 33, ethyl 9-benzyl-β-carboline-3-carboxylate] ?
Result string: 18.9

Query string: Test system Lewis lung cancer; read-out Body weight of the animals, beginning, Second time; what value for CCOC(=O)c1cc2c([nH]c3ccccc32)c(C)n1 [Compound 11, ethyl 1-methyl-β-carboline-3-carboxylate] ?
Result string: 19.8

Query string: Lab request: please report Body weight of the animals, beginning, Second time under test system Lewis lung cancer for `c1ccc(Cn2c3ccccc3c3ccncc32)cc1`
Result string: 19.7

Query string: For the record `CCOC(=O)Nc1cc2c3ccccc3n(Cc3ccccc3)c2cn1` , what value of Body weight of the animals, beginning, Second time is listed for Lewis lung cancer?
Result string: 19.6

Query string: Short answer please: Body weight of the animals, beginning, Second time, Lewis lung cancer, entry OCc1cc2c3ccccc3n(Cc3ccccc3)c2cn1 [Compound 42, 9-benzyl-3-hydroxymethyl-β-carboline]
Result string: 19.1

Query string: Short answer please: Body weight of the animals, beginning, Second time, Lewis lung cancer, entry `O=C(O)c1cc2c(cn1)[nH]c1ccccc12`
Result string: 20.2

Query string: For the record `O=C(O)c1cc2c3ccccc3n(CCCc3ccccc3)c2cn1` , what value of Body weight of the animals, beginning, Second time is listed for Lewis lung cancer?
Result string: 19.0

Query string: Query Body weight of the animals, beginning, Second time on Lewis lung cancer for `CCCCn1c2ccccc2c2cc(C(=O)O)ncc21`
Result string: 20.1

Query string: Item: `O=C(O)c1cc2c3ccccc3n(Cc3ccccc3)c2cn1` Test system: Lewis lung cancer Read-out: Body weight of the animals, beginning, Second time Value: ?
Result string: 19.5

====

System: Lewis lung cancer
Conditions: Lewis lung cancer; Dosage 50, ip × 10qd; first time
Please provide measured Body weight of the animals, beginning, First time for the entries that follow.
Please reply with the bare figure in g and do not write the unit itself.

Query string: # returns recorded Body weight of the animals, beginning, First time (system: Lewis lung cancer) for CCOC(=O)c1cc2c3ccccc3n(Cc3ccccc3)c2cn1 [Compound 33, ethyl 9-benzyl-β-carboline-3-carboxylate]
Result string: 20.3

Query string: GET /values?readout=Body weight of the animals, beginning, First time&system=Lewis lung cancer&item= CCCCn1c2ccccc2c2cc(C(=O)O)ncc21 [Compound 36, 9-butyl-β-carboline-3-carboxylic acid];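 note: mice implanted subcutaneously in the axilla with Lewis lung tumor cells, treated starting the following day, killed roughly three weeks after implantation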
Result string: 18.8

Query string: Hi! What's the reported Body weight of the animals, beginning, First time for CCOC(=O)Nc1cc2c3ccccc3n(Cc3ccccc3)c2cn1 [Compound 55] on Lewis lung cancer?
Result string: 18.7

Query string: Lab note: need Body weight of the animals, beginning, First time for CCOC(=O)c1cc2c(cn1)[nH]c1ccccc12 [Compound 10, ethyl β-carboline-3-carboxylate] on Lewis lung cancer, anyone have it?
Result string: 20.1

Query string: Provide the documented Body weight of the animals, beginning, First time with Lewis lung cancer as the system for COC(=O)c1cc2c([nH]c3ccccc32)c(-c2ccccc2)n1 [Compound 14]
Result string: 20.1

Query string: Query the reported Body weight of the animals, beginning, First time for Lewis lung cancer; item: OCc1cc2c3ccccc3n(Cc3ccccc3)c2cn1 [Compound 42, 9-benzyl-3-hydroxymethyl-β-carboline]
Result string: 20.0

Query string: Body weight of the animals, beginning, First time of O=C(O)c1cc2c3ccccc3n(Cc3ccccc3)c2cn1 [Compound 37, 9-benzyl-β-carboline-3-carboxylic acid] on Lewis lung cancer?
Result string: 18.9
